src = patent US8178506B2

// reported TG (triglyceride accumulation) for each item listed
system: adipocytes; assay: Triglyceride accumulation assay in adipocytes; format: cell-based, human; conditions: differentiating adipocytes transfected with oligomeric compound; Table 75
In the oligonucleotide strings, read from the 5' end, every base follows the letter of its sugar. An asterisk marks phosphorothioate; unmarked linkages are phosphodiester. Other units and linkages are bracketed, terminal groups are in braces. A string of capitals states the bases alone. e = 2'-O-(2-methoxyethyl) (MOE); [5mC] = 5-methylcytosine
experimental-endpoint: TG (triglyceride accumulation)

substance	tgt	result-value
328130 (antisense eA*e[5mC]*e[5mC]*eT*e[5mC]*eA*eG*eG*eT*eG*eG*eT*eT*eG*eA*eA*eG*eG*eA*eG*eA) [compound 328130]	adipocytes	91 percentage of untreated control (UTC)
348117 (GAACCCACAAUCCCUGGCUUA; all 2'-MOE, all phosphorothioate, methylation of C and T or U not given here) [compound 348117]	adipocytes	66 percentage of untreated control (UTC)
328118 (antisense eT*eA*eT*eT*eA*eT*e[5mC]*eA*eG*e[5mC]*eA*eT*e[5mC]*eT*eG*e[5mC]*eT*eT*eG*e[5mC]*eA) [compound 328118]	adipocytes	69 percentage of untreated control (UTC)
346695 (CACUGGUACAAGGGUUGGGAGA; all 2'-MOE, all phosphorothioate, methylation of C and T or U not given here) [compound 346695]	adipocytes	69 percentage of untreated control (UTC)
